Below, each entry is listed alongside its reported MIC.
# Test system: Nakaseomyces glabratus
# MEASUREMENT_DESCRIPTION: Antimicrobial activity against Candida glabrata ATCC 1182
# Assay type: functional
Positions of bridges follow the written chain, without caps; N, C: chain ends. Non-standard residues stand in square brackets, D forms with d. Residues, ends and D or L forms follow the SMILES beside them. S5 = C=CCCC[C@](C)(N)C(=O)O

CC[C@H](C)[C@H](NC(=O)[C@H](CC(=O)O)NC(=O)[C@H](Cc1ccccc1)NC(=O)[C@H](CC(C)C)NC(=O)CNC(C)=O)C(=O)N[C@H](C(=O)N[C@@H](CCCCN)C(=O)N[C@@H](CCCCN)C(=O)N[C@@]1(C)CCC/C=C\CCC[C@@](C)(C(N)=O)NC(=O)[C@H](CO)NC(=O)[C@H](CCC(=O)O)NC(=O)[C@H](C)NC1=O)[C@@H](C)CC (Ac-GLFDIIKK[S5]AES[S5]-NH2; staple (Z) 9-13)	> 128 µg/mL

Exercise: // query MIC value for entry CC[C@H](C)[C@H](NC(=O)[C@H](CC(=O)O)NC(=O)[C@H](Cc1ccccc1)NC(=O)[C@H](CC(C)C)NC(=O)CN)C(=O)N[C@H](C(=O)N[C@@H](CCCCN)C(=O)N[C@@]1(C)CCC/C=C\CCC[C@@](C)(C(=O)N[C@@H](Cc2ccccc2)C(N)=O)NC(=O)[C@H](CCC(=O)O)NC(=O)[C@H](C)NC(=O)[C@H]([C@@H](C)CC)NC1=O)[C@@H](C)CC (H-GLFDIIK[S5]IAE[S5]F-NH2; staple (Z) 8-12)
Key: > 128 µg/mL

* * *

# Test system: Candida parapsilosis
# MEASUREMENT_DESCRIPTION: Antimicrobial activity against Candida parapsilosis ATCC 22010
# Assay type: functional
# RUN_CONDITIONS: Lodderomyces parapsilosis
Positions of bridges follow the written chain, without caps; N, C: chain ends. Non-standard residues stand in square brackets, D forms with d. Residues, ends and D or L forms follow the SMILES beside them. S5 = C=CCCC[C@](C)(N)C(=O)O
Documented MIC across a set of molecules

Consider the worked cases shown below.
CC[C@H](C)[C@H](NC(=O)[C@H](CC(=O)O)NC(=O)[C@H](Cc1ccccc1)NC(=O)[C@H](CC(C)C)NC(=O)CN)C(=O)N[C@H](C(=O)N[C@@H](CCCCN)C(=O)N[C@@]1(C)CCC/C=C\CCC[C@@](C)(C(=O)N[C@@H](Cc2ccccc2)C(N)=O)NC(=O)[C@H](CCC(=O)O)NC(=O)[C@H](C)NC(=O)[C@H]([C@@H](C)CC)NC1=O)[C@@H](C)CC (H-GLFDIIK[S5]IAE[S5]F-NH2; staple (Z) 8-12)	> 128 µg/mL
CC[C@H](C)[C@H](NC(=O)[C@H](CC(=O)O)NC(=O)[C@H](Cc1ccccc1)NC(=O)[C@H](CC(C)C)NC(=O)CNC(C)=O)C(=O)N[C@H](C(=O)N[C@@H](CCCCN)C(=O)N[C@@H](CCCCN)C(=O)N[C@@]1(C)CCC/C=C\CCC[C@@](C)(C(N)=O)NC(=O)[C@H](CO)NC(=O)[C@H](CCC(=O)O)NC(=O)[C@H](C)NC1=O)[C@@H](C)CC (Ac-GLFDIIKK[S5]AES[S5]-NH2; staple (Z) 9-13)	> 128 µg/mL

Exercise: Look at this molecule and give its reported MIC. CC[C@H](C)[C@H](NC(=O)[C@H](CC(=O)O)NC(=O)[C@H](Cc1ccccc1)NC(=O)[C@H](CC(C)C)NC(=O)CN)C(=O)N[C@@]1(C)CCC/C=C\CCC[C@@](C)(C(=O)N[C@@H](CCC(=O)O)C(=O)N[C@@H](CO)C(=O)N[C@@H](Cc2ccccc2)C(N)=O)NC(=O)[C@H]([C@@H](C)CC)NC(=O)[C@H](CCCCN)NC(=O)[C@H](CCCCN)NC1=O (H-GLFDI[S5]KKI[S5]ESF-NH2; staple (Z) 6-10)
Key: > 128 µg/mL
